Target: human α1D‐adrenoceptor (full length) (Homo sapiens)
Construct: human α1D‐adrenoceptor (full length) were used; expressed in transfected cells; host or cells: CHO-K1
Sequence (P25100 1-572): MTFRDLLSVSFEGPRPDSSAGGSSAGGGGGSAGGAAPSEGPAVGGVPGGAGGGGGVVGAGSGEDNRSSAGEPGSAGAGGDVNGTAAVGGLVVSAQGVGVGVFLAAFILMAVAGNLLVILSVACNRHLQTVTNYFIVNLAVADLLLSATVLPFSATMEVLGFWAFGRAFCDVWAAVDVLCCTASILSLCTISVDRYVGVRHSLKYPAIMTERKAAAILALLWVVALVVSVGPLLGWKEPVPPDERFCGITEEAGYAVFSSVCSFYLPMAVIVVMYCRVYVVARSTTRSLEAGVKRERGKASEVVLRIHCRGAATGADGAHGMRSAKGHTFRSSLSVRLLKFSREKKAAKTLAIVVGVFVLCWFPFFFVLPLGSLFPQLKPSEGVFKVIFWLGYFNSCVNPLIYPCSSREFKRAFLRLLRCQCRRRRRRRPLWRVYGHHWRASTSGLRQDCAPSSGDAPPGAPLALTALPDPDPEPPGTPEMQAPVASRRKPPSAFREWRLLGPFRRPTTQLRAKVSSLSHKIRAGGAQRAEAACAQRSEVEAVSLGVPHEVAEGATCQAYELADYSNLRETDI
Assay: Intracellular free calcium mobilization, CHO‐α1D cells
Format: cell-based
Conditions: CHO‐α1D cells; maximal response as % of 10 µM ionomycin
observation type: Intracellular calcium release % ionomycin (%)
One number for each entry, in %.

Enquiry: Can you share its Intracellular calcium release % ionomycin? I mean this compound: COc1ccc(OC)c(C(O)C(C)N)c1 (stereo not shown)
Return: 22.6

Enquiry: Can you share its Intracellular calcium release % ionomycin? I mean this compound: O=C1CC2(CCCC2)CC(=O)N1CCCCN1CCN(c2ncccn2)CC1
Return: 9.0

Enquiry: Can you share its Intracellular calcium release % ionomycin? I mean this compound: c1ccc2c(CC3=NCCN3)cccc2c1
Return: 11.8

Enquiry: Can you share its Intracellular calcium release % ionomycin? I mean this compound: CNC[C@H](O)c1ccc(O)c(O)c1
Return: 30.3

Enquiry: Can you share its Intracellular calcium release % ionomycin? I mean this compound: Cc1cc(C(C)(C)C)c(O)c(C)c1CC1=NCCN1
Return: 7.6

Enquiry: Can you share its Intracellular calcium release % ionomycin? I mean this compound: CCc1cccc(CC)c1NC1=NCCN1
Return: 6.3

Enquiry: Can you share its Intracellular calcium release % ionomycin? I mean this compound: NC[C@H](O)c1ccc(O)c(O)c1
Return: 26.6

Enquiry: Can you share its Intracellular calcium release % ionomycin? I mean this compound: N=C(N)NC(=O)Cc1c(Cl)cccc1Cl
Return: 28.6

Enquiry: Can you share its Intracellular calcium release % ionomycin? I mean this compound: CS(=O)(=O)Nc1c(O)ccc2c1CCCC2C1=NCCN1 (stereo not shown)
Return: 12.0

Enquiry: Can you share its Intracellular calcium release % ionomycin? I mean this compound: COc1nc(C)nc(Cl)c1N=C1NCCN1
Return: 16.6

API: the following record is the query input.
Enquiry: Can you share its Intracellular calcium release % ionomycin? I mean this compound: C[C@H](N)[C@H](O)c1cccc(O)c1
Return: 23.1

FYI, the data here is from paper PMC8343220.
